B1: LINE1-full (parent)
chain: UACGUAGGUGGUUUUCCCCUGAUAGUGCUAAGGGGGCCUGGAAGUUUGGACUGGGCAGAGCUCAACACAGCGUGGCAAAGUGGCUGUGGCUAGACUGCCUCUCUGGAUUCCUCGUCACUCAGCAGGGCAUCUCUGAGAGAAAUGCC

Variants of: B1
Test: self-cleavage, relative activity (ratio to wild type); higher = more cleavage; in vitro, sequencing; the parent is a self-cleaving ribozyme
Given measured self-cleavage, output YES if it is greater than or equal to 0.7 and NO if not.

UACGUAGGUGGUUUUCCCCUGAUAGUGCUAAGGGGGCCUGGAAGUUUGGACUGGGCAGAGCUCAACUCAGCGUGGCAGAGUGGCUGUGGCUAGACUGCCUCUCUGGAUUCCUCGUCACUCAGCAGGGCAUCUCUGAGAGAAAUGCC | NO
UACGUAGGUGGUUUUCCCCUGAUAGUGCCAAGGGGGCCUGGAAGUUUGGACUGGGCAGAGCUCAACACAGCGUGGCAAAGUGGCUGUGGCUAGACUGCCUCUCUGGAUUCCUCGUCACUCAGCAGGGCAUUUCUGAGAGAAAUGCC | YES
UACGUAGGUGGUUUUCCCCUGAUAGUGCUAAGGGGGCCUGGAAGUUUGGACUGGGCAGAGCUCAGCACAGCGUGGCAAAGUGGCUGUGGCUAGACUGCCUCUCUGGAUUCCUCGUCACUCAGGAGGGCAUCUCUGAGAGAAAUGCC | NO
UACGUAGGUGGUUUUCCCCUGAUAGUGCUAAGGGGGCCUGGAAGUUUGGACUGGGCAGAGCCCAACACAGCGUGGCAAAGUGGCUGUGGCUAGACUGCCUCUCUGGAUUCCUCGUCACUCAGCAGGGCAUCUCUGAGAGAUAUGCC | NO
UACGUAGGUGGUUUUCCCCUGAUAGUGCUAAGGGGGCCUGGAAGUUUGGACUGGGCAGAGCUCAACACAGCGUGGCAAAGUGGCUGUGGCUAGACUGCCUCUCUGGAAUCCUCGUCACUCAGCAGGGCAUCUCCGAGAGAAAUGCC | YES
UACGUAGGUGGUUUUCCCCCGAUAGUGCUAAGGGGGGCUGGAAGUUUGGACUGGGCAGAGCUCAACACAGCGUGGCAAAGUGGCUGUGGCUAGACUGCCUCUCUGGAUUCCUCGUCACUCAGCAGGGCAUCUCUGAGAGAAAUGCC | YES
UACGUAGGUGGUUUUCCCCUGAUAGUGAUAAGGGGGCCUGGAAGUUUGGACUGGGCAGAGCUCAACACAGCGUGGCAAAGUGGCUGUGGCUAGACUGCCUCUCUGGAUUCCUCGUCACUCAGCAGGGCAUCUCUGAGAGAGAUGCC | NO
UACGUAGGUGGUCUUCCCCUGAUAGUGCUAAGGGGGCCUGGAAGUUUGGACUGGGCAGAGCUCAACACAGCGUGGCAAAGUGGCUGUGGCUAGACUGCCUCUCUGGAUUCCUCGUCACUCAGCUGGGCAUCUCUGAGAGAAAUGCC | YES

[Q] Please check the record UACGUAGGUGGUUUUCCCCUGAUAGUGCUAAGGGGGCCUGGAAGUUUGGACUGGGCAGAGCUCAACACAGCGUGGCAAAGUGGCUGUGGCUAGACUGCCUCUCUGGAUUCCUCGUCACUCAGCAAGGCAUCUCUGAGAGAAAUGCU and state if its self-cleavage is at or above 0.7.
[A] YES

[Q] Please check the record UACGUAGGUGGUUUUCCCCUGAUAGUGCUAAGGGGGCCUGGAAGUUUGGACUGGGCUGAGCUCAACACAGCGUGGCAGAGUGGCUGUGGCUAGACUGCCUCUCUGGAUUCCUCGUCACUCAGCAGGGCAUCUCUGAGAGAAAUGCC and state if its self-cleavage is at or above 0.7.
[A] NO

[Q] Confirm if self-cleavage reported for the variant UACGUAGGUGGUUUUCCCCUGAUAGUGCUAAGGAGGCCUGGAAGUUUGGACUGGGCAGAGCUCAACGCAGCGUGGCAAAGUGGCUGUGGCUAGACUGCCUCUCUGGAUUCCUCGUCACUCAGCAGGGCAUCUCUGAGAGAAAUGCC is 0.7 or above.
[A] NO

[Q] Check if self-cleavage >= 0.7 (inclusive). Item: UACGUAGGUGGUUUUCCUCUGAUAGUGCUAAGGGGGCCUGGAAGUUUGGACUGGGCAGAGCUCAACACAGCGUGGCGAAGUGGCUGUGGCUAGACUGCCUCUCUGGAUUCCUCGUCACUCAGCAGGGCAUCUCUGAGAGAAAUGCC
[A] YES

[Q] Would you say UACGUAGGUGGUUUUCCCCUGAUAGUGCUAAGGGGGCCUGGAAGUUUGGACUGGGCAGAGCUCGACACAGCGUGGCAAAGUGGCUGUGGCUAGACUGCCUCUCUGUAUUCCUCGUCACUCAGCAGGGCAUCUCUGAGAGAAAUGCC shows self-cleavage at minimum 0.7?
[A] NO

[Q] Threshold query (self-cleavage >= 0.7) on UACGUAGGUGGUUUUCCCCUGUUAGUGCUAAGGGGGCCUGGAAGUAUGGACUGGGCAGAGCUCAACACAGCGUGGCAAAGUGGCUGUGGCUAGACUGCCUCUCUGGAUUCCUCGUCACUCAGCAGGGCAUCUCUGAGAGAAAUGCC
[A] YES

[Q] # check: self-cleavage of UACGUAGGUGGUUUUCCCCUGAUAGUGCUAAGGGGGCCUGGAAGUUUGGACUGGGCAGAGCUCAACACAGCGUGGCAAAGUGGCUGUGGCUAGACAGCCUCUCUGGAUUCCUCGUCACUCAGCAGGGCAUCUCUGAGAGAAAUGCC is greater than or equal to 0.7
[A] NO
